The origin of these recorded values is paper PMC11191600.

# CLH rat (hepatic clearance) values compiled below
- Protocol summary: Microsomal stability, rat hepatic microsomes
- Format: in vitro ADME
- Applied conditions: predicted hepatic clearance
Quantity kind: CLH rat (hepatic clearance) (mL/min/kg)

>>> print(df.to_string())
                                   molecule                quantity_kind  display_unit  observed_value
0  Cc1ccccc1C(=O)N1CC2(CCN(Cc3c[nH]c4cc(F)ccc34)CC2)C1 [Compound 33]  CLH rat (hepatic clearance)     mL/min/kg            39.0
1  Cc1ccc(C(=O)N2CC3(CCN(Cc4ccc(F)c(F)c4)CC3)C2)cc1C [Compound 4]  CLH rat (hepatic clearance)     mL/min/kg            59.1
2  Cc1cccc(C(=O)N2CC3(CCN(Cc4c[nH]c5cc(F)ccc45)CC3)C2)c1 [Compound 32]  CLH rat (hepatic clearance)     mL/min/kg            46.2
3  O=C(c1ccc2c(c1)OCO2)N1CC2(CCN(Cc3c[nH]c4cc(F)ccc34)CC2)C1 [Compound 20]  CLH rat (hepatic clearance)     mL/min/kg            36.2
4  Cc1ccc(C(=O)N2CC3(CCN(Cc4c[nH]c5cc(F)ccc45)CC3)C2)cc1 [Compound 29]  CLH rat (hepatic clearance)     mL/min/kg            49.2

* * *

- Target or system: human dopamine D4.4 receptor (Homo sapiens)
- Protocol summary: Human dopamine D4.4 receptor radioligand binding assay (Eurofins)
pIC50: −log10 of the molar value.
Quantity kind: pIC50

In [3]: df
Out[3]:
                                   compound                          target_or_system  observed_value
0  Cc1ccc(C(=O)N2CC3(CCN(Cc4cn(C)c5ccccc45)CC3)C2)cc1C [Compound 12]  human dopamine D4.4 receptor (Homo sapiens)            6.55

* * *

- Target or system: human dopamine D4.4 receptor (Homo sapiens)
- Sequence (P21917 1-419): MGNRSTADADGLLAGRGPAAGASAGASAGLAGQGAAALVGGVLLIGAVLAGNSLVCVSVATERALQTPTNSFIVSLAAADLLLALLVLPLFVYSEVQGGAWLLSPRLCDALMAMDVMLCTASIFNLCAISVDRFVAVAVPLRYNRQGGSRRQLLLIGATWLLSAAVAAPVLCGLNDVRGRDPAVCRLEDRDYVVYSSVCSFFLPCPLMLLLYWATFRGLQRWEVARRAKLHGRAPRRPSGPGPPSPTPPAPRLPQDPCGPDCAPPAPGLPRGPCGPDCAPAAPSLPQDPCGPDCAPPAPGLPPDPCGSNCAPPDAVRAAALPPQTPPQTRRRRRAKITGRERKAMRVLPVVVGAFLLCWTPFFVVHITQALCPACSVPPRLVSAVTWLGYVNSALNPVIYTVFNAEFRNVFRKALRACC
- Protocol summary: Human dopamine D4.4 receptor radioligand binding assay (Eurofins)
- Applied conditions: read-out: D4.4 IC50; Eurofins Discovery
pIC50: −log10 of the molar value.
Quantity kind: pIC50

>>> print(df.to_string())
                           structure_smiles  quantity_kind  observed_value
0  O=C(c1ccc2c(c1)OCO2)N1CC2(CCN(Cc3c[nH]c4cc(F)ccc34)CC2)C1          pIC50            7.08
1  Cc1cccc(C(=O)N2CC3(CCN(Cc4c[nH]c5cc(F)ccc45)CC3)C2)c1          pIC50            6.31
2  Cc1ccc(S(=O)(=O)N2CC3(CCN(Cc4c[nH]c5cc(F)ccc45)CC3)C2)cc1          pIC50            6.92
3  Cc1ccc(C(=O)N2CC3(CCN(Cc4ccc(F)c(F)c4)CC3)C2)cc1C          pIC50            5.55
4  Cc1ccc(C(=O)N2CC3(CCN(Cc4n[nH]c5cc(F)ccc45)CC3)C2)cc1C          pIC50            6.82
5  Cc1ccc(C(=O)N2CC3(CCN(Cc4c[nH]c5cc(F)ccc45)CC3)C2)cc1C          pIC50            6.70
6  Cc1ccccc1C(=O)N1CC2(CCN(Cc3c[nH]c4cc(F)ccc34)CC2)C1          pIC50            6.68
7  Cc1ccc(C(=O)N2CC3(CCN(Cc4ccc(Cl)c(Cl)c4)CC3)C2)cc1C          pIC50            7.09

* * *

- Target or system: human dopamine D4.4 receptor (Homo sapiens)
- Protocol summary: Human dopamine D4.4 receptor radioligand binding assay (Eurofins)
- Applied conditions: read-out: D4.4 Ki; Eurofins Discovery
pKi: −log10 of the molar value.
Below, each of the molecules is paired with its reported pKi value.
Quantity kind: pKi

>>> print(df.to_string())
                                   molecule  observed_value
0  Cc1ccc(C(=O)N2CC3(CCN(Cc4n[nH]c5cc(F)ccc45)CC3)C2)cc1C [Compound 6]            7.37
1  Cc1ccc(C(=O)N2CC3(CCN(Cc4c[nH]c5cc(F)ccc45)CC3C)C2)cc1C (centres unmarked) [Compound 13]            6.57
2  Cc1cccc(C(=O)N2CC3(CCN(Cc4c[nH]c5cc(F)ccc45)CC3)C2)c1 [Compound 32]            6.85
3  O=C(c1ccc2c(c1)OCO2)N1CC2(CCN(Cc3c[nH]c4cc(F)ccc34)CC2)C1 [Compound 20]            7.64
4  O=C(c1ccc(Cl)cc1Cl)N1CC2(CCN(Cc3c[nH]c4cc(F)ccc34)CC2)C1 [Compound 19]            7.64
5  Cc1ccc(C(=O)N2CC3(CCN(Cc4c[nH]c5cc(F)ccc45)CC3)C2)cc1 [Compound 29]            7.77
6  Cc1ccc(C(=O)N2CC3(CCN(Cc4c[nH]c5cc(F)ccc45)CC3)C2)cc1C [Compound 5]            7.25
7  Cc1ccc(S(=O)(=O)N2CC3(CCN(Cc4c[nH]c5cc(F)ccc45)CC3)C2)cc1 [Compound 34]            7.48

* * *

- Target or system: human dopamine D4.4 receptor (Homo sapiens, UniProt P21917)
- Protocol summary: Human dopamine D4.4 receptor radioligand binding assay (Eurofins)
- Applied conditions: read-out: D4.4 Ki; Eurofins Discovery
pKi: −log10 of the molar value.
The reader will find reported pKi values listed item by item below.
Quantity kind: pKi

>>> print(df.to_string())
                                   compound  observed_value
0  Cc1ccccc1C(=O)N1CC2(CCN(Cc3c[nH]c4cc(F)ccc34)CC2)C1            7.23
1  Cc1ccc(C(=O)N2CC3(CCN(Cc4ccc(Cl)c(Cl)c4)CC3)C2)cc1C            7.66
2  Cc1ccc(C(=O)N2CC3(CCN(Cc4c[nH]c5cc(F)ccc45)C(C)C3)C2)cc1C (stereo not shown)            6.28
3  Cc1ccc(C(=O)N2CC3(CCN(Cc4ccc(F)c(F)c4)CC3)C2)cc1C            6.60

* * *

- Target or system: human dopamine D2S receptor (Homo sapiens, UniProt P14416)
- Sequence (P14416 1-414 isoform P14416-2): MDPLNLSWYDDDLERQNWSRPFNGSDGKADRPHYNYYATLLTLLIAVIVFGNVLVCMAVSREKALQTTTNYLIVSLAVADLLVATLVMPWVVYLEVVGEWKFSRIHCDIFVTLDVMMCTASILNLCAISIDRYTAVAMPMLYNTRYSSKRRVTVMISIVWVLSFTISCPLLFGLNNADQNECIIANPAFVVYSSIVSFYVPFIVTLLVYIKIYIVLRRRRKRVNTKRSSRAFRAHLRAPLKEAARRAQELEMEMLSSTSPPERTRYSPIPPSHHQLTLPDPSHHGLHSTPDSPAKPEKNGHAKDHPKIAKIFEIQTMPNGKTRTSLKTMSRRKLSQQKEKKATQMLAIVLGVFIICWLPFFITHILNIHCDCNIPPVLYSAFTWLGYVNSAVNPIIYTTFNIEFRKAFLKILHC
- Protocol summary: Human dopamine D2S receptor radioligand binding assay (Eurofins)
- Applied conditions: 10 μM; [3H]Spiperone binding; Eurofins Discovery
Quantity kind: % Inhibition at 10 μM D2S (%)

>>> df
                           structure_smiles              quantity_kind  display_unit  observed_value
0  Cc1ccc(C(=O)N2CC3(CCN(Cc4c[nH]c5cc(F)ccc45)CC3)C2)cc1  % Inhibition at 10 μM D2S             %               5
1  Cc1ccc(C(=O)N2CC3(CCN(Cc4n[nH]c5cc(F)ccc45)CC3)C2)cc1C  % Inhibition at 10 μM D2S             %              15
2  Cc1ccc(C(=O)N2CC3(CCN(Cc4ccc(F)c(F)c4)CC3)C2)cc1C  % Inhibition at 10 μM D2S             %               8
3  Cc1ccccc1C(=O)N1CC2(CCN(Cc3c[nH]c4cc(F)ccc34)CC2)C1  % Inhibition at 10 μM D2S             %               0
4  Cc1cccc(C(=O)N2CC3(CCN(Cc4c[nH]c5cc(F)ccc45)CC3)C2)c1  % Inhibition at 10 μM D2S             %              18
5  Cc1ccc(C(=O)N2CC3(CCN(Cc4c[nH]c5cc(F)ccc45)CC3)C2)cc1C  % Inhibition at 10 μM D2S             %              25
6  O=C(c1ccc2c(c1)OCO2)N1CC2(CCN(Cc3c[nH]c4cc(F)ccc34)CC2)C1  % Inhibition at 10 μM D2S             %              12
7  O=C(c1ccc(Cl)cc1Cl)N1CC2(CCN(Cc3c[nH]c4cc(F)ccc34)CC2)C1  % Inhibition at 10 μM D2S             %              14
8  Cc1ccc(C(=O)N2CC3(CCN(Cc4ccc(Cl)c(Cl)c4)CC3)C2)cc1C  % Inhibition at 10 μM D2S             %              25
9  Cc1ccc(S(=O)(=O)N2CC3(CCN(Cc4c[nH]c5cc(F)ccc45)CC3)C2)cc1  % Inhibition at 10 μM D2S             %              17
